The values you see were collected from PubChem BioAssay (NCI).

Assign TGI to each entry below.
Tested on: BT-549 breast
Assay: NCI tumour cell line growth inhibition, 48 h

Give the measured TGI of COCCOC(=O)C(C)=[N+]=[N-] .
> 100 µM

Sample C=C(C)C12CC3CC/C(=N/O)C(C1)C3(N1CCOCC1)C/C2=N/O (stereo not drawn) — what was its TGI?
> 100 µM

Requested field: TGI. Item: CC(C)CCN[C@@H]1CCc2cc(O)c(N3CC(=O)NS3(=O)=O)c(F)c2C1
> 100 µM

###

System: SNB-75 CNS
Assay: NCI tumour cell line growth inhibition, 48 h
Test Readout: TGI

Value lookup for TGI; key = COc1ccc(CCNC(=O)[C@H]2CCCC[C@@H]2CCO)cc1OC
> 100 µM

Tell me the measured TGI of Cn1cnc([N+](=O)[O-])c1Sc1ncn[nH]1 , please.
> 100 µM

Fill in: TGI of COc1ccc(NC2CC(C)N(C(=O)c3ccccc3)O2)cc1 (configuration not stated) is ___
> 10 µM

I'd like to know its TGI. The molecule in question is Cc1cc2c(cc1N)C(C)C1(CCC(=O)N2Cc2ccccc2)OCCO1 (configuration not stated)
> 100 µM

Consider the molecule C/C=C/[C@H](O[Si](C)(C)C(C)(C)C)[C@@H](O)/C=C/C(=O)OCC and give its measured TGI.
> 100 µM

Could you tell me which TGI is on file for CC1=CC(=O)N(c2c(C)cccc2Cl)C(C)N1 (configuration not stated) ?
> 100 µM

Would you kindly share the measured TGI for COc1ccc2c(c1)CCC(OS(=O)(=O)CC13CCC(CC1=O)C3(C)C)C2=O (configuration not stated) ?
> 100 µM

// returns reported TGI for input O=C(NS(=O)(=O)c1ccccc1)C(Cc1ccccc1)C(Cc1ccccc1)C(=O)NS(=O)(=O)c1ccccc1 (configuration not stated)
> 100 µM

What value of TGI has been reported for the following molecule? COc1ccc2nc(NC(=O)C(=O)C(C#N)c3ccc(Cl)c(Cl)c3)sc2c1 (configuration not stated)
> 100 µM

Data request, read-out TGI, for CC(C)C(NC(=O)C(Cc1ccccc1)NC(=O)[C@H]1CCC[C@H]1NC(=O)C(N)Cc1ccc(O)cc1)C(N)=O (some centres not stated)
> 100 µM

Name the reported TGI value associated with the molecule O=C(CC1C(=O)Nc2ccccc2S1=O)Nc1ccc(Cl)cc1 (configuration not stated)
> 100 µM

TGI for CCOC(=O)c1c(C)c(C)n2c1NC(=O)C2 ?
> 74.7 µM

###

Please provide measured TGI for the entries that follow.
Tested on: SF-268 CNS
Assay: NCI tumour cell line growth inhibition, 48 h

Please report the recorded TGI for CC(C)C(NC(=O)C(Cc1ccccc1)NC(=O)[C@H]1CCC[C@H]1NC(=O)C(N)Cc1ccc(O)cc1)C(N)=O (some centres undefined) .
> 100 µM

Reported TGI, molecule Cc1cccc(C(C)(C)C)c1NC(=O)CC1Sc2ccccc2NC1=O (centres undefined) : ____
> 100 µM

Consider the molecule CC(=O)Oc1ccc(C(c2ccc(OC(C)=O)cc2)c2ccccn2)cc1 and give its measured TGI.
> 100 µM

May I ask what TGI has been recorded for CC(=O)O[C@@H](C1C[C@@H](C)[C@H]2[C@@](O)(O1)[C@H](O)[C@@]1(C)C3=CC[C@H]4C(C)(C)[C@@H](OC5OCC(O)C(O)C5O)CC[C@@]45C[C@@]35CC[C@]21C)C(C)(C)O (some centres undefined) ?
> 100 µM
